# assay-overview: Rat pharmacokinetic and tissue distribution study, oral dosing
# reported-conditions: male, Sprague-Dawley, rat, in vivo, po, 10 mg/kg
readout-type: Cmax (ng/mL)
// units = ng/mL; emit number, no label

q: Please look at this compound and report its Cmax: "CC(=O)NCCCC[C@@H]1NC(=O)[C@H](Cc2c[nH]c3c(C)cccc23)NC(=O)[C@H]([C@@H](C)O)NC(=O)[C@H](CC(N)=O)NC(=O)[C@@H](NC(C)=O)C(C)(C)SSC(C)(C)[C@@H](C(=O)N[C@@H](Cc2ccc(OCCN)cc2)C(=O)N[C@@H](Cc2ccc3ccccc3c2)C(=O)NC2(C(=O)N[C@@H](CCC(=O)O)C(=O)N[C@@H](CC(N)=O)C(=O)N[C@@H](Cc3cccnc3)C(=O)N(C)CC(N)=O)CCOCC2)NC1=O"
a: 6.49

---

# assay-overview: Exposure in colon tissue and colon contents in TNBS studies
# Type: in vivo, rat
# reported-conditions: male, Sprague-Dawley, rat, colon tissue, po, 1 mg/kg/day, TNBS rats, 1 mg/kg/day oral, Study 1; LC-MS/MS, LLOQ=2.6 nM; read-out: Colon tissue concentration
readout-type: level at time molar (nM)
// units = nM; emit number, no label

q: Please look at this molecule and report its level at time molar: CC(=O)NCCCC[C@@H]1NC(=O)[C@H](Cc2c[nH]c3c(C)cccc23)NC(=O)[C@H]([C@@H](C)O)NC(=O)[C@H](CC(N)=O)NC(=O)[C@@H](NC(C)=O)C(C)(C)SSC(C)(C)[C@@H](C(=O)N[C@@H](Cc2ccc(OCCN)cc2)C(=O)N[C@@H](Cc2ccc3ccccc3c2)C(=O)NC2(C(=O)N[C@@H](CCC(=O)O)C(=O)N[C@@H](CC(N)=O)C(=O)N[C@@H](Cc3cccnc3)C(=O)N(C)CC(N)=O)CCOCC2)NC1=O [JNJ-77242113]
a: 84.3

---

# assay-overview: Exposure in colon tissue and colon contents in TNBS studies
# Format: in vivo, rat
# reported-conditions: male, Sprague-Dawley, rat, colon content, po, 10 mg/kg/day, TNBS rats, 10 mg/kg/day oral, Study 2; LC-MS/MS, LLOQ=2.6 nM; read-out: Colon content concentration
readout-type: level at time molar (µM)
// units = µM; emit number, no label

q: Please look at this compound and report its level at time molar: "CC(=O)NCCCC[C@@H]1NC(=O)[C@H](Cc2c[nH]c3c(C)cccc23)NC(=O)[C@H]([C@@H](C)O)NC(=O)[C@H](CC(N)=O)NC(=O)[C@@H](NC(C)=O)C(C)(C)SSC(C)(C)[C@@H](C(=O)N[C@@H](Cc2ccc(OCCN)cc2)C(=O)N[C@@H](Cc2ccc3ccccc3c2)C(=O)NC2(C(=O)N[C@@H](CCC(=O)O)C(=O)N[C@@H](CC(N)=O)C(=O)N[C@@H](Cc3cccnc3)C(=O)N(C)CC(N)=O)CCOCC2)NC1=O"
a: 38.7

---

# assay-overview: Exposure in colon tissue and colon contents in TNBS studies
# Type: in vivo, rat
# reported-conditions: male, Sprague-Dawley, rat, colon tissue, po, 1 mg/kg/day, TNBS rats, 1 mg/kg/day oral, Study 3; LC-MS/MS, LLOQ=2.6 nM; read-out: Colon tissue concentration
readout-type: level at time molar

q: Please look at this molecule and report its level at time molar: "CC(=O)NCCCC[C@@H]1NC(=O)[C@H](Cc2c[nH]c3c(C)cccc23)NC(=O)[C@H]([C@@H](C)O)NC(=O)[C@H](CC(N)=O)NC(=O)[C@@H](NC(C)=O)C(C)(C)SSC(C)(C)[C@@H](C(=O)N[C@@H](Cc2ccc(OCCN)cc2)C(=O)N[C@@H](Cc2ccc3ccccc3c2)C(=O)NC2(C(=O)N[C@@H](CCC(=O)O)C(=O)N[C@@H](CC(N)=O)C(=O)N[C@@H](Cc3cccnc3)C(=O)N(C)CC(N)=O)CCOCC2)NC1=O"
a: 83.2 nM
